Molecular target: T1, hMC1-R (human, UniProt Q01726 1-317)
T1 construct: whole, on cells; Assayed as membranes of CHO-K1 cells expressing the receptor; also called hMC-R receptor subtype 1; melanocyte-specific receptor (MC1-R)
T1 sequence (Q01726 whole entry): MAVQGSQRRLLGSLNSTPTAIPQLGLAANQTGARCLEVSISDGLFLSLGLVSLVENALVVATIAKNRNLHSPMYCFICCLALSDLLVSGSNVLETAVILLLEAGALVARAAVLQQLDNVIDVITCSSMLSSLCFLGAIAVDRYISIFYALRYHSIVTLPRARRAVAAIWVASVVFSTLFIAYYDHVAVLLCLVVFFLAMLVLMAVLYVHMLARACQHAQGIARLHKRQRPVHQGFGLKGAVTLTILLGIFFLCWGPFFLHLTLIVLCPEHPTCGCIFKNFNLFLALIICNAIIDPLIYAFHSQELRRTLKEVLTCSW
Assay: competition with [125I]-NDP-α-MSH, CHO-K1 membranes
pKi: −log10 of the molar value. Bridge positions count the residues as written; N and C are the ends. Square brackets hold non-standard residues; d marks the D form. dCha = N[C@H](CC1CCCCC1)C(=O)O; Pen = CC(C)(S)[C@H](N)C(=O)O; Nle = CCCC[C@H](N)C(=O)O; GABA = NCCCC(=O)O
Assign Satisfied whenever pKi does not fall below 10; assign Not satisfied whenever it does.

Check if pKi >= 10 (inclusive). Item: Ac-[Nle]C[dI]H[dF]RWC-NH2 (disulfide 2-8) [Ac-Nle-c(Cys-D-Ile-His-D-Phe-Arg-Trp-Cys)-NH2]
Not satisfied

What do we get for Ac-VCH[dF]RW[GABA]C-NH2 (disulfide 2-8; SMILES CC(=O)N[C@H](C(=O)N[C@H]1CSSC[C@@H](C(N)=O)NC(=O)CCCNC(=O)[C@H](Cc2c[nH]c3ccccc23)NC(=O)[C@H](CCCNC(=N)N)NC(=O)[C@@H](Cc2ccccc2)NC(=O)[C@H](Cc2c[nH]cn2)NC1=O)C(C)C) [Ac-Val-c(Cys-His-D-Phe-Arg-Trp-Gaba-Cys)-NH2] ?
Not satisfied

What do we get for Ac-[Nle]C[dCha]H[dF]RWC-NH2 (disulfide 2-8; SMILES CCCC[C@H](NC(C)=O)C(=O)N[C@H]1CSSC[C@@H](C(N)=O)NC(=O)[C@H](Cc2c[nH]c3ccccc23)NC(=O)[C@H](CCCNC(=N)N)NC(=O)[C@@H](Cc2ccccc2)NC(=O)[C@H](Cc2c[nH]cn2)NC(=O)[C@@H](CC2CCCCC2)NC1=O) [Ac-Nle-c(Cys-D-Cha-His-D-Phe-Arg-Trp-Cys)-NH2] ?
Not satisfied

What do we get for Ac-[dR]DH[dF]RWAK-NH2 (lactam 2-8) [Ac-D-Arg-c(Asp-His-D-Phe-Arg-Trp-Ala-Lys)-NH2] ?
Not satisfied

What do we get for Ac-[dR]CH[dF]RW[GABA][Pen]-NH2 (disulfide 2-8; SMILES CC(=O)N[C@H](CCCNC(=N)N)C(=O)N[C@H]1CSSC(C)(C)[C@@H](C(N)=O)NC(=O)CCCNC(=O)[C@H](Cc2c[nH]c3ccccc23)NC(=O)[C@H](CCCNC(=N)N)NC(=O)[C@@H](Cc2ccccc2)NC(=O)[C@H](Cc2c[nH]cn2)NC1=O) [Ac-D-Arg-c(Cys-His-D-Phe-Arg-Trp-Gaba-Pen)-NH2] ?
Not satisfied

What do we get for Ac-[Nle]DH[dF]RW[GABA]K-NH2 (lactam 2-8) [Ac-Nle-c(Asp-His-D-Phe-Arg-Trp-Gaba-Lys)-NH2] ?
Satisfied
